Assignment: determine reported Minimum inhibitory concentration, Average for the given sequences.
tested on: Candida albicans; details: Candida albicans, average of triplicates
Answers are plain numbers, in µM.

ORDERED RESIDUES	ASSAY RESULT
GIGDILKNLAKAAGKAALHAVGESL [HSP-4, Hylaseptin-4, reference compound]	8.0
KVLSKVHTLLKAVLAL [At02]	8.0

Prompt line: Give a short answer stating reported Minimum inhibitory concentration, Average for GFKDLLKGAAKALVKTVLF [Asc-8, Ascaphin 8, reference compound] .
Response line: 8.0

* * *

system: Cryptococcus neoformans; conditions: Cryptococcus neoformans, CLSI M27-A3, triplicate 1
Assignment: determine reported Minimum inhibitory concentration for the given sequences.

Worked examples follow.
ORDERED RESIDUES	Minimum inhibitory concentration
KVLSKVHTLLKAVLAL [At02]	4 µM
GSLHGFMYKYLKTLVLRLY [Zm01]	4 µM

In the following, a different sequence is considered.
Prompt line: Give a short answer stating reported Minimum inhibitory concentration for GFKDLLKGAAKALVKTVLF [Asc-8, Ascaphin 8, reference compound] .
Response line: 4 µM

* * *

Test system: Bacillus cereus
Conditions: Bacillus cereus, CLSI M7-A10, triplicate 1
Protocol: Antimicrobial activity was tested against three categories of human and plant pathogenic microorganisms: Gram-positive (Bacillus subtilis, Bacillus cereus, Staphylococcus aureus), Gram-negative (Escherichia coli, Pseudomonas aeruginosa, Erwinia carotovora, Pseudomonas syringae pv. tabaci, Xanthomonas campestris pv. citri) and yeasts (Candida albicans, Cryptococcus neoformans), as previously reported. […]
Decision: Minimum inhibitory concentration >= 20 µM yields Yes, all other cases yield No.

ORDERED RESIDUES	CATEGORY
GFKDLLKGAAKALVKTVLF [Asc-8, Ascaphin 8, reference compound]	No

Prompt line: Can GSLHGFMYKYLKTLVLRLY [Zm01] be said to have Minimum inhibitory concentration at or above 20 µM?
Response line: Yes

Prompt line: Can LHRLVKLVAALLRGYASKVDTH [Tc08] be said to have Minimum inhibitory concentration at or above 20 µM?
Response line: No

Prompt line: Can GAKLAKKQVRALGKFFSF [At03] be said to have Minimum inhibitory concentration at or above 20 µM?
Response line: Yes

* * *

test system: Candida albicans; conditions: Candida albicans, triplicate 3
RECORDED ENDPOINT: Minimum inhibitory concentration (µM)
Answers are plain numbers, in µM.

Take each entry in turn and give its Minimum inhibitory concentration.
1. GSLHGFMYKYLKNMVLNLF [Tc06]
2. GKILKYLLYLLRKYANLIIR [Tc02]
3. GIGDILKNLAKAAGKAALHAVGESL [HSP-4, Hylaseptin-4, reference compound]
4. GSLHGFMYKYLKNMVLTLF [At01]
5. GSLHGFMYRYLKNMVLNLF [Cs01]

Response line:
[4, 1, 8, 16, 4]

Take each entry in turn and give its Minimum inhibitory concentration.
1. ANRLLEAYKMLLKFLGNLR [Gr02]
2. IVNHLVKLFDKGLNSIVNLR [Tc05]
3. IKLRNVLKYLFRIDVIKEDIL [Tc03]
4. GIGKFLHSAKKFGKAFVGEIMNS [Mag-2a, Magainin-2a, reference compound]
5. GAKLAKKQVRALGKFFSF [At03]
6. GLKDMIKNLAKEAAVKLAGAVINKFSPQPQ [Nat-1, Nattererin-1, reference compound]
7. GSLHGFMYKYLKTLVLRLY [Zm01]

Response line:
1. 4
2. 128
3. 512
4. 64
5. 128
6. 16
7. 8

Take each entry in turn and give its Minimum inhibitory concentration.
1. FFGHIWHGARTLFRDVFA [Cs02]
2. GFKLGRKLVKVFKWII [Gr01]

Response line:
[32, 1]

Take each entry in turn and give its Minimum inhibitory concentration.
1. GFKDLLKGAAKALVKTVLF [Asc-8, Ascaphin 8, reference compound]
2. GLLFKELQKLIRYQIFIGK [Tc10]
3. FLSLIPHAINAVSTLVHHF [PS-2, reference compound]

Response line:
8
64
32

Take each entry in turn and give its Minimum inhibitory concentration.
1. KVLSKVHTLLKAVLAL [At02]
2. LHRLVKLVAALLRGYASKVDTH [Tc08]

Response line:
1: 8; 2: 4

* * *

test system: Bacillus subtilis; settings: Bacillus subtilis, triplicate 2
RECORDED ENDPOINT: Minimum inhibitory concentration (µM)
Numbers only, in µM.

ORDERED RESIDUES	Minimum inhibitory concentration (µM)
ANRLLEAYKMLLKFLGNLR [Gr02]	1

Take each entry in turn and give its Minimum inhibitory concentration.
1. GLLFKELQKLIRYQIFIGK [Tc10]
2. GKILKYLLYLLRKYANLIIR [Tc02]
3. KVLSKVHTLLKAVLAL [At02]
4. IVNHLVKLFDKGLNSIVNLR [Tc05]
5. GAKLAKKQVRALGKFFSF [At03]
6. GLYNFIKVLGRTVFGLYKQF [At04]

Response line:
16
4
1
64
8
256

* * *

tested on: Escherichia coli; conditions: Escherichia coli, triplicate 2
RECORDED ENDPOINT: Minimum inhibitory concentration
Give your result as the value with the unit written after it.

Worked examples follow.
ORDERED RESIDUES	RECORDED ENDPOINT	ASSAY RESULT
GAKLAKKQVRALGKFFSF [At03]	Minimum inhibitory concentration	16 µM
KVLSKVHTLLKAVLAL [At02]	Minimum inhibitory concentration	2 µM
GSLHGFMYKYLKNMVLTLF [At01]	Minimum inhibitory concentration	64 µM
FLSLIPHAINAVSTLVHHF [PS-2, reference compound]	Minimum inhibitory concentration	8 µM
GSLHGFMYKYLKTLVLRLY [Zm01]	Minimum inhibitory concentration	16 µM

In the following, a different sequence is considered.
Prompt line: Output reported Minimum inhibitory concentration of the sequence ANRLLEAYKMLLKFLGNLR [Gr02] on Escherichia coli.
Response line: 4 µM

* * *

system: Escherichia coli; conditions: Escherichia coli, CLSI M7-A10, triplicate 1
Assignment: determine reported Minimum inhibitory concentration for the given sequences.
Give your result as the value with the unit written after it.

Take each entry in turn and give its Minimum inhibitory concentration.
1. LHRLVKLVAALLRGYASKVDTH [Tc08]
2. GSLHGFMYKYLKNMVLTLF [At01]
3. GSLHGFMYKYLKNMVLNLF [Tc06]

Response line:
1. 2 µM
2. 64 µM
3. 32 µM

* * *

tested on: Pseudomonas syringae pv. tabaci; conditions: Pseudomonas syringae pv. tabaci, CLSI M7-A10, triplicate 1
Decision: Minimum inhibitory concentration >= 20 µM yields Y, all other cases yield N.

Recorded results for 3 sequences are shown here.
ORDERED RESIDUES	CATEGORY
GFKLGRKLVKVFKWII [Gr01]	N
GSLHGFMYKYLKNMVLTLF [At01]	N
GSLHGFMYRYLKNMVLNLF [Cs01]	N

Prompt line: Can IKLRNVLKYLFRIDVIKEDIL [Tc03] be said to have Minimum inhibitory concentration at or above 20 µM?
Response line: Y

Prompt line: Can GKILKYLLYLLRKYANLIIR [Tc02] be said to have Minimum inhibitory concentration at or above 20 µM?
Response line: N

Prompt line: Can GAKLAKKQVRALGKFFSF [At03] be said to have Minimum inhibitory concentration at or above 20 µM?
Response line: N

Prompt line: Can GLLFKELQKLIRYQIFIGK [Tc10] be said to have Minimum inhibitory concentration at or above 20 µM?
Response line: Y

Prompt line: Can GSLHGFMYKYLKTLVLRLY [Zm01] be said to have Minimum inhibitory concentration at or above 20 µM?
Response line: Y

Prompt line: Can ANRLLEAYKMLLKFLGNLR [Gr02] be said to have Minimum inhibitory concentration at or above 20 µM?
Response line: N

Prompt line: Can FFYNVIKIYGNMAGRISK [Cs03] be said to have Minimum inhibitory concentration at or above 20 µM?
Response line: Y

Prompt line: Can GFKDLLKGAAKALVKTVLF [Asc-8, Ascaphin 8, reference compound] be said to have Minimum inhibitory concentration at or above 20 µM?
Response line: N

Prompt line: Can FFGHIWHGARTLFRDVFA [Cs02] be said to have Minimum inhibitory concentration at or above 20 µM?
Response line: N

Prompt line: Can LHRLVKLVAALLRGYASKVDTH [Tc08] be said to have Minimum inhibitory concentration at or above 20 µM?
Response line: N

* * *

tested on: Pseudomonas aeruginosa; details: Pseudomonas aeruginosa, average of triplicates
Decision: Minimum inhibitory concentration, Average >= 20 µM yields YES, all other cases yield NO.

ORDERED RESIDUES	CATEGORY
GFKLGRKLVKVFKWII [Gr01]	NO
GFKDLLKGAAKALVKTVLF [Asc-8, Ascaphin 8, reference compound]	NO
GSLHGFMYKYLKTLVLRLY [Zm01]	NO

Prompt line: Can GAKLAKKQVRALGKFFSF [At03] be said to have Minimum inhibitory concentration, Average at or above 20 µM?
Response line: YES

Prompt line: Can ANRLLEAYKMLLKFLGNLR [Gr02] be said to have Minimum inhibitory concentration, Average at or above 20 µM?
Response line: YES
